Parameter GI50: see the listing below.
System: NCI-H1975 (EGFR L858R/T790M)
Test Description: Inhibition test for growth of cancer cell expressing EGFR (MTS), NCI-H1975
Type: cell-based
Experimental Context: Homo sapiens; NCI-H1975 cells, 48 hours, MTS; read-out: GI50 NCI-H1975 EGFR L858R/T790M

# count of solved cases: 3
- C=CC(=O)Nc1cccc(Oc2nc(Nc3ccc(OCCN(C)C)c(F)c3)nc3ccsc23)c1 [Example 132]: < 50 nM
- C=CC(=O)Nc1cccc(Oc2nc(Nc3ccc(N4CCN(S(=O)(=O)CC)CC4)cc3)nc3ccsc23)c1 [Example 24]: 50 to 100 nM
- C=CC(=O)Nc1cccc(Oc2nc(Nc3ccc(C(=O)NC)cc3)nc3ccsc23)c1 [Example 78]: 50 to 100 nM

Q: What does the data say about its GI50? Entry: C=CC(=O)Nc1cccc(Oc2nc(Nc3ccc(CN(CC)CC)cc3)nc3ccsc23)c1 [Example 174]
A: < 50 nM

Q: Any idea what GI50 was measured for C=CC(=O)Nc1cccc(Nc2nc(Nc3ccc(CCN(C)C)cc3)nc3ccsc23)c1 [Example 213] ?
A: < 50 nM

---

Form field: GI50 (one value per entry).
System: HCC827 (EGFR DelE746_A750)
Test Description: Inhibition test for growth of cancer cell expressing EGFR (SRB), HCC827
Format: cell-based
Experimental Context: Homo sapiens, HCC827, 72 h, HCC827 cells, 72 hours, SRB; read-out: GI50 HCC827 EGFR DelE746_A750

- C=CC(=O)Nc1cccc(Oc2nc(Nc3ccc(N4CCC(N5CCOCC5)CC4)cc3)nc3ccsc23)c1 [Example 49]: < 50 nM
- C=CC(=O)Nc1cccc(Oc2nc(Nc3ccc(NC4CCN(C(C)C)CC4)nc3)nc3ccsc23)c1 [Example 154]: 50 to 100 nM

Q: # query: GI50 of entry C=CC(=O)Nc1cccc(Oc2nc(Nc3ccc(CS(C)(=O)=O)cc3)nc3ccsc23)c1 [Example 95]
A: < 50 nM

Q: Sample C=CC(=O)Nc1cccc(Oc2nc(Nc3ccc(N4CC5CC4CN5C)cc3)nc3ccsc23)c1 (stereo not shown) [Example 28] — what was its GI50?
A: 50 to 100 nM

Q: Would you mind telling me what GI50 value was observed for C=CC(=O)Nc1cccc(Oc2nc(Nc3ccc(N4CCN(C5CCCCC5)CC4)cc3)nc3ccsc23)c1 [Example 13] ?
A: < 50 nM

Q: Value lookup for GI50; key = C=CC(=O)Nc1cccc(Oc2nc(Nc3ccc(OCCN4CCOCC4)cc3)nc3ccsc23)c1 [Example 65]
A: < 50 nM

Q: Any idea what GI50 was measured for C=CC(=O)Nc1cccc(Oc2nc(Nc3ccc(C4CCCN(C)C4)cc3OC)nc3ccsc23)c1 (stereo not shown) [Example 115] ?
A: < 50 nM

Q: I'd like to know its GI50. The compound in question is C=CC(=O)Nc1cccc(Nc2nc(Nc3ccc(N4CCN(C)CC4)cc3)nc3ccsc23)c1 [Example 206]
A: < 50 nM

Q: Record request: GI50 value, item C=CC(=O)Nc1cccc(Oc2nc(Nc3ccc(CN4CCCC4)cc3)nc3ccsc23)c1 [Example 176]
A: < 50 nM

Q: Which GI50 reading was recorded for the compound C=CC(=O)Nc1cccc(Oc2nc(Nc3ccc(CN4CCC(N(C)C)CC4)cc3)nc3ccoc23)c1 [Example 232] ?
A: 50 to 100 nM

---

System: HCC827 (EGFR DelE746_A750)
Test Description: Inhibition test for growth of cancer cell expressing EGFR (SRB), HCC827
Type: cell-based
Experimental Context: Homo sapiens, HCC827, 72 h, HCC827 cells, 72 hours, SRB; read-out: GI50 HCC827 EGFR DelE746_A750
In this section we review reported GI50 values for a set of molecules.

Below, 2 molecules whose answers are already recorded.
• C=CC(=O)Nc1cccc(Oc2nc(Nc3ccc(C(=O)NC4CCN(C)CC4)cc3)nc3ccsc23)c1 = < 50 nM
• C=CC(=O)Nc1cccc(Nc2nc(Nc3ccc(OCCN(C)C)cc3)nc3ccsc23)c1 = < 50 nM

Turning now to a further molecule:
Q: Quick one: GI50 for C=CC(=O)Nc1cccc(Oc2nc(Nc3ccc(CCS(C)(=O)=O)cc3)nc3ccsc23)c1 ?
A: 50 to 100 nM

---

Test system: NCI-H1975 (EGFR L858R/T790M)
Test Description: Inhibition test for growth of cancer cell expressing EGFR (MTS), NCI-H1975
Format: cell-based
Experimental Context: Homo sapiens; NCI-H1975 cells, 48 hours, MTS; read-out: GI50 NCI-H1975 EGFR L858R/T790M
Entries and their GI50

* C=CC(=O)Nc1cccc(Oc2nc(Nc3ccc(N4CCC(CN(C)C)CC4)cc3)nc3ccsc23)c1 [Example 41] | < 50 nM

Q: Consider the molecule shown here: C=CC(=O)Nc1cccc(Nc2nc(Nc3ccc(OCCCN(C)C)cc3)nc3ccsc23)c1 [Example 212] What is its recorded GI50?
A: 50 to 100 nM

Q: # GI50 lookup, item C=CC(=O)Nc1cccc(Oc2nc(Nc3ccc(N4CCC(n5ccnc5)C4)cc3)nc3ccsc23)c1 (stereo not shown) [Example 35]
A: < 50 nM

Q: Suppose we examine the molecule C=CC(=O)Nc1cccc(Oc2nc(Nc3ccc(CN4CCC4)cc3)nc3ccsc23)c1 [Example 175] ; what GI50 value has been reported?
A: < 50 nM

Q: What does the record list as GI50 for C=CC(=O)Nc1cccc(Oc2nc(Nc3ccc(CCN4CCCCC4)cc3)nc3ccsc23)c1 [Example 98] ?
A: < 50 nM

Q: Endpoint output: GI50 of C=CC(=O)Nc1cccc(Oc2nc(Nc3ccc(N4CCOCC4)c(F)c3)nc3ccsc23)c1 [Example 122] . Value?
A: < 50 nM

Q: Data request, read-out GI50, for C=CC(=O)Nc1cccc(Oc2nc(Nc3ccc(CN4CCC(N(C)C)CC4)c(F)c3)nc3ccsc23)c1 [Example 196]
A: 50 to 100 nM

---

Tested on: HCC827 (EGFR DelE746_A750)
Test Description: Inhibition test for growth of cancer cell expressing EGFR (SRB), HCC827
Format: cell-based
Experimental Context: Homo sapiens, HCC827, 72 h, HCC827 cells, 72 hours, SRB; read-out: GI50 HCC827 EGFR DelE746_A750
Let's look at some compounds and their measured GI50.

* C=CC(=O)Nc1cccc(Oc2nc(Nc3ccc(N4CCN(CCO)CC4)cc3)nc3ccsc23)c1 | < 50 nM

Q: Quick check: GI50 of C=CC(=O)Nc1cccc(Oc2nc(Nc3ccc(CN4CCN(C5CCN(C)CC5)CC4)cc3)nc3ccsc23)c1 ?
A: < 50 nM

Q: Name the recorded GI50 for C=CC(=O)Nc1cccc(Oc2nc(Nc3ccc(N4CCC(CO)CC4)cc3)nc3ccsc23)c1 .
A: < 50 nM

Q: GET /values?readout=GI50&item= C=CC(=O)Nc1cccc(Oc2nc(Nc3ccc(C4CCN(C)CC4)cc3OC)nc3ccsc23)c1
A: 50 to 100 nM

---

Measured GI50 by item
Tested on: HCC827 (EGFR DelE746_A750)
Test Description: Inhibition test for growth of cancer cell expressing EGFR (SRB), HCC827;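 note: cells in 96-well plates exposed to tenfold serial dilutions from 100 µM, fixed with trichloroacetic acid, SRB-stained, absorbance read at 540 nm, DMSO under 1%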
Type: cell-based
Experimental Context: Homo sapiens, HCC827, 72 h, HCC827 cells, 72 hours, SRB; read-out: GI50 HCC827 EGFR DelE746_A750

- C=CC(=O)Nc1cccc(Oc2nc(Nc3ccc(N4CCN(C)CC4)c(C)c3)nc3ccsc23)c1: < 50 nM

Q: Tell me the measured GI50 of C=CC(=O)Nc1cccc(Oc2nc(Nc3ccc(OCCN4CCOCC4)c(OC)c3)nc3ccsc23)c1 , please.
A: < 50 nM

Q: Consider the compound shown here: C=CC(=O)Nc1cccc(Oc2nc(Nc3ccc(OC4CCN(C)CC4)c(F)c3)nc3ccsc23)c1 What is its recorded GI50?
A: < 50 nM
